pKi: −log10 of the molar value.
System: UniProt P56817 | Read-out: pKi | Origin: multiple publications

I would be grateful if you could share the reported pKi for `O=C(c1cccc2ccccc12)n1c2c(c3cc(OCc4ccc(C(F)(F)F)cc4)ccc31)CCNC2` .
> 5.52

What do you get for `O=C(Nc1cc(-c2ccc(F)cc2)ccc1N1CCNCC1)c1cccc2ccccc12` ?
4.52 to 5.52

Input `O=C(c1ccc2ccccc2c1)n1c2c(c3cc(OCc4cccc(C(F)(F)F)c4)ccc31)CCNC2`
> 5.52

Then this compound: `CN1CC=C(c2cc(CO)c(-c3ccoc3)cc2COc2ccccc2C(F)(F)F)CC1`
4.52 to 5.52

# iterate: `O=C(c1cccc2ccccc12)n1c2c(c3cc(OCc4cccc(C(F)(F)F)c4)ccc31)CCNC2`
> 5.52

Please answer likewise for `CN1C(=N)N[C@](C)(c2sc(-c3nnc(C4Cc5ccccc5C4)o3)cc2Cl)CS1(=O)=O`
6.59

Another compound: O=C(NC1CCCc2ccccc21)C1CNCCC1c1ccc(COc2ccccc2C(F)(F)F)cc1 (stereo not drawn)
4.52 to 5.52

Please give the result for `COc1cnc2c(Nc3ccc4c(c3)[C@@]3(C)NC(=N)N(C)S(=O)(=O)[C@H]3CCO4)nccc2n1` too.
7.22

Same question for `COc1cnc(C(=O)Nc2ccc(F)c([C@]3(C)CN(C)S(=O)(=O)C(C)(C)C(=N)N3)c2)cn1` please.
7.43

---

Collected literature values of Ki measured for Beta-secretase 1 (Homo sapiens).

So what's the measured Ki for this one? `O=C(Nc1cc(F)c(-c2ccccc2)cc1N1CCNCC1)c1cccc2ccccc12`
3 to 30 µM

Another: `CN1C(=N)N[C@](C)(c2ccc(F)cc2F)[C@@H](c2ccc(C(F)(F)F)cc2)S1(=O)=O`
~0.009 µM

Another molecule to check: `C[C@@]1(c2cc(NC(=O)c3ncc(Cl)cc3Cl)ccc2F)CS(=O)(=O)C2(CCCC2)C(=N)N1`
0.0027 µM

What about `O=C(c1cccc2ccccc12)n1c2c(c3cc(OCc4ccc(OC(F)F)cc4)ccc31)CCNC2` ?
< 3 µM

Next molecule up: `COC(=O)c1cccc(OCc2ccc(COc3ccccc3C(F)(F)F)cc2C2=CCNCC2)c1`
3 to 30 µM

Same question for `CCc1nc(N2C[C@H]3C(=O)N(C)C(=N)N[C@@]3(c3cc(F)c(F)cc3F)C2)nc(OC)c1F` please.
0.0056 µM

How about this molecule: `Cc1cc(N2CCNCC2)c(NC(=O)c2cccc3ccccc23)cc1Br`
> 30 µM

Follow-up item: O=C(Nc1ccc2ccccc2c1)C1CNCCC1c1ccc(COc2ccccc2C(F)(F)F)cc1 (centres unmarked)
3 to 30 µM
